- test.name: TNF-a-driven NF-kB reporter inhibitors, primary screen, selectivity assay for NOD1/NOD2 signaling inhibitor project, cell-based, HEK293T NF-kB-Luc, luminescence (AID 1852)
- assay.setup: TNF-a induced, 14 h, at 4 µM, stronger effect = higher value
Among all 2,500 compounds or so, about 1,100 (44%) were called active. The set was probably picked from earlier hits. The list shows a part of the results.
endpoint.label: inhibition (%)

| smiles.entry | readout.units | result.number |
| --- | --- | --- |
| Cc1ccc(S(=O)(=O)c2cc3ccccc3oc2=O)cc1 | % | 29.7 |
| CCN(CC)S(=O)(=O)c1cccc(NC(=O)c2ccc(Br)cc2)c1 | % | 27.5 |
| CCc1ccc(C(=O)Nc2nc3ccccc3[nH]2)cc1 | % | 103 |
| O=c1oc2ccc(Br)cc2cc1S(=O)(=O)c1ccc(F)cc1 | % | 68 |

###

- test.name: TNF-a-driven NF-kB reporter inhibitors, primary screen, selectivity assay for NOD1/NOD2 signaling inhibitor project, cell-based, HEK293T NF-kB-Luc, luminescence (AID 1852)
- assay.setup: TNF-a induced, 14 h, at 4 µM
In all, about 2,500 compounds went through this assay and about 1,100 (44%) were called active.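 How the source made its calls: active means inhibition above 50% at 4 µM in the single-point screen; inactive means inhibition of 50% or less.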 So high a share suggests a set chosen from earlier hits. The list shows a part of the results.
Outcome codes: class 1 = active, class 0 = inactive

| compound | assigned.label |
| --- | --- |
| Cn1c(-c2ccccc2)c(C(=O)CCl)c2ccccc21 | class 1 |
| Cn1c(=O)c([N+](=O)[O-])c(N2CCN(Cc3ccc4c(c3)OCO4)CC2)c2ccccc21 | class 0 |
| O=C(NCCc1ccccc1)c1ccc2c(c1)OCCO2 | class 0 |
| CCc1nn2cc(C(=O)c3cc(Cl)ccc3O)cnc2c1-c1ccc(F)cc1 | class 0 |
| Cn1c(=NC(=O)CCl)sc2ccccc21 | class 0 |
| Cc1ccc(-c2nc(NC(=O)c3nn(C)cc3[N+](=O)[O-])sc2C)cc1C | class 0 |
| O=C1N(Cc2cccc(Cl)c2)C[C@@H]2C[C@@H](c3cccn3-c3cccnc3)N3CCC[C@@]123 | class 0 |
| COc1ccccc1N1CCN(C(=O)c2sc3ncnc(N4CCN(c5ccccn5)CC4)c3c2C)CC1 | class 0 |
| COC(=O)c1ccc(NC(=O)c2ccccc2NS(=O)(=O)c2ccccc2)cc1 | class 0 |
| Cc1ccc(C(=O)Nc2ncc([N+](=O)[O-])s2)cc1 | class 0 |
| O=C(NCCc1ccccc1F)c1ccc2c(c1)OCCO2 | class 1 |
| COc1ccc2[nH]cc(C(=O)CCl)c2c1 | class 1 |
| COc1ccccc1C(=O)Nc1nc(-c2ccc(S(=O)(=O)N3CCOCC3)cc2)cs1 | class 1 |
| Cc1nc2c(Br)cc(Br)cc2cc1O | class 0 |
| CC(=O)NCCC(=O)N1CCc2c([nH]c3ccccc23)C1c1cccc(Cl)c1 (stereo unspecified) | class 0 |
| Cc1ccc(S(=O)(=O)Nc2ccccc2C(=O)Nc2nc(-c3ccc(F)cc3)cs2)cc1 | class 1 |
| Cn1c(=O)c(C#N)c(-c2ccc(F)cc2)c2cc(C(=O)c3cc(Cl)cc(Cl)c3O)cnc21 | class 1 |
| O=S(=O)(Nc1cccc2cccnc12)c1ccccc1 | class 0 |
| O=S(=O)(Nc1cccc(-c2cn3cccnc3n2)c1)c1ccc(-c2ccccc2)cc1 | class 0 |
| CC(=O)c1ccc(Nc2nc3ccccc3nc2NS(=O)(=O)c2cccs2)cc1 | class 0 |
| COc1cccc(C(=O)N/N=C(/c2ccccc2)c2ccccn2)c1 | class 1 |
